TARGET_UNDER_TEST: G3BP1 NTF2-like domain (1-139) TripleW (F15W/F33W/F124W) (human, UniProt Q13283 1-139, F15W | F33W | F124W)
Sequence (Q13283 1-139 F15W/F33W/F124W): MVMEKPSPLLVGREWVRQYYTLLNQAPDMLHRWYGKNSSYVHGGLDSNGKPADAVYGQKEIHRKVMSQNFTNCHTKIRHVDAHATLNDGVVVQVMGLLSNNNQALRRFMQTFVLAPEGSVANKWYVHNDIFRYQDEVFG
TEST_NAME: fluorescence polarisation
Where no end group is shown, it is not given here. Ahx = NCCCCCC(=O)O
ATTRIBUTE_MEASURED: Kd (µM)
Answers are plain numbers, in µM.

The recorded Kd for {fluorescein-Ahx}-YNFIQDSMLDFE [Caprin1-derived dodecamer reporter peptide F*-YNFIQDSMLDFE] is 240

The origin of these recorded values is paper PMC9723946.
